Cited source for all entries: patent US20240270846A1

Each entry below carries its reported pKd.
target: T1, human CD137 (human, UniProt Q07011 24-186); experiment: SPR Biacore T200, IgG captured on protein A, antigen as analyte, 25 C;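 further: antigens flowed over a CM3 chip for 120 s association, KD derived from ka and kd, running buffer (ACES, NaCl, Tween20, pH 7.4) served as blank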
T1 construct: Soluble analyte in the Biacore assay; also called 4-1BB; hCD137
T1 sequence (Q07011 24-186 limits assumed): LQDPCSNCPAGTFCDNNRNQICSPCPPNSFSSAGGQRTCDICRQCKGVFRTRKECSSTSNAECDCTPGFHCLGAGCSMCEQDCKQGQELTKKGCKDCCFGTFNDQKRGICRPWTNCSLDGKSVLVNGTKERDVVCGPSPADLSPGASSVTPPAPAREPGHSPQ
FYI, pKd means -log10 of a concentration in mol per litre.

>>> reported_result("dBBDu_193 / dBBDu.L132 (antibody, human IgG1, V domains shown, Tested as IgG (human IgG1 constant region, kappa light chain); also called dBBDu193/L132; dBBDu_193/L132) VH: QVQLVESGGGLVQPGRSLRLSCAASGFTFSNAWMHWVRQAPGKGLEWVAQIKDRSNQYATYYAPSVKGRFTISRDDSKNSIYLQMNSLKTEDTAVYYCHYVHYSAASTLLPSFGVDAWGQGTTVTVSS VL: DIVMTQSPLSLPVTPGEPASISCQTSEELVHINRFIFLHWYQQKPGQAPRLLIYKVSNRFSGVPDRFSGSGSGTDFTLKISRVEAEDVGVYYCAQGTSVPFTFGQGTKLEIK")
5.35
>>> reported_result("dBBDu_186 / dBBDu_L106 (antibody, human IgG1, V domains shown, Tested as IgG (human IgG1 constant region, kappa light chain); also called dBBDu186/L106) VH: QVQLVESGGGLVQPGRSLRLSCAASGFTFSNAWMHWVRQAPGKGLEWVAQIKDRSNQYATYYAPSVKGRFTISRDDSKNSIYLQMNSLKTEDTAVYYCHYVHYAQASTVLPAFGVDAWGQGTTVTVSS VL: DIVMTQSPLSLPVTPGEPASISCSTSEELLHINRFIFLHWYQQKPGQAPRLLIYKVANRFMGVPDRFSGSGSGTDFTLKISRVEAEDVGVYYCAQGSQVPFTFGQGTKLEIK")
5.46
>>> reported_result("dBBDu_167 / dBBDu.L094 (antibody, human IgG1, V domains shown, Tested as IgG (human IgG1 constant region, kappa light chain); also called dBBDu167/L094; dBBDu_167/L094) VH: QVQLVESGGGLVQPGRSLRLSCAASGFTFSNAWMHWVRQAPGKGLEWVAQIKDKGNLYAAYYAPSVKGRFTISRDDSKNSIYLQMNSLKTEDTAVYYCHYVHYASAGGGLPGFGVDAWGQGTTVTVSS VL: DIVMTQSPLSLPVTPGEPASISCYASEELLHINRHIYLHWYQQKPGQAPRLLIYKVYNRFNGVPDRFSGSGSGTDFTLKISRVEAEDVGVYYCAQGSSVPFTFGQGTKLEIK")
5.07
>>> reported_result("dBBDu_189 / dBBDu_L126 (antibody, human IgG1, V domains shown, Tested as IgG (human IgG1 constant region, kappa light chain); also called dBBDu189/L126) VH: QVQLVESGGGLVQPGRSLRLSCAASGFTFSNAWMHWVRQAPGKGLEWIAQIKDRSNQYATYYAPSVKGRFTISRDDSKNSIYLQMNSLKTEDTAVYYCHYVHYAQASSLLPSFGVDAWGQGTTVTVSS VL: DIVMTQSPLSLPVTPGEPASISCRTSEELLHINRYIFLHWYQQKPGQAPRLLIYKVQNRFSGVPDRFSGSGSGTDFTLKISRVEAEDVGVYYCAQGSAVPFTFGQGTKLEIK")
6.29
>>> reported_result("dBBDu_193 / dBBDu.L127 (antibody, human IgG1, V domains shown, Tested as IgG (human IgG1 constant region, kappa light chain); also called dBBDu193/L127; dBBDu_193/L127) VH: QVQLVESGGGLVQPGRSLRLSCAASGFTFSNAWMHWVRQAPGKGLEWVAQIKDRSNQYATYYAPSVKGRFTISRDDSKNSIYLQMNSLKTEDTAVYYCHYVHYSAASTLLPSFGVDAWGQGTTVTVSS VL: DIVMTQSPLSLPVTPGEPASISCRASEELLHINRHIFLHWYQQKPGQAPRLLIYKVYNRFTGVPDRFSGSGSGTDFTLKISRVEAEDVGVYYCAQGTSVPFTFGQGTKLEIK")
5.48
>>> reported_result("dBBDu_186 / dBBDu_L100 (antibody, human IgG1, V domains shown, Tested as IgG (human IgG1 constant region, kappa light chain); also called dBBDu186/L100) VH: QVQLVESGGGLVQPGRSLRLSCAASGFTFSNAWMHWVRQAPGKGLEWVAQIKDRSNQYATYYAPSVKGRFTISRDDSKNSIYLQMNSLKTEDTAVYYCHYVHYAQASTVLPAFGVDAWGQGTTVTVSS VL: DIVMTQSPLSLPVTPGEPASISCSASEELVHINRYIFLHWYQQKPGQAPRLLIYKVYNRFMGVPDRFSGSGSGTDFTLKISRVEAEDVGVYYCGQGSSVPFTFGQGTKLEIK")
5.72

Query :: Write down pKd measured for item dBBDu_189 / dBBDu_L119 (antibody, human IgG1, V domains shown, Tested as IgG (human IgG1 constant region, kappa light chain); also called dBBDu189/L119) VH: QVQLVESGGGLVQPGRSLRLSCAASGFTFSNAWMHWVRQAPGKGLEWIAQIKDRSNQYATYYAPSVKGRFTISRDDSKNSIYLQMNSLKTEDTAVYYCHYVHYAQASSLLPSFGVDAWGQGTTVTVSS VL: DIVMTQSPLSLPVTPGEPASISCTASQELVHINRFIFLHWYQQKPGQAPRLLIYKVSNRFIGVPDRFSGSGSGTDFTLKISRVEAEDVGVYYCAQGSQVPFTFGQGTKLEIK
Result :: 5.57

Query :: Identify measured pKd associated with dBBDu_186 / dBBDu_L108 (antibody, human IgG1, V domains shown, Tested as IgG (human IgG1 constant region, kappa light chain); also called dBBDu186/L108) VH: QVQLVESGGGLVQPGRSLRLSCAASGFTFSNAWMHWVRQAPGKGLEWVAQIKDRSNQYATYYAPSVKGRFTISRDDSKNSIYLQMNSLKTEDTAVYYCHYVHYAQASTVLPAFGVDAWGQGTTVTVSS VL: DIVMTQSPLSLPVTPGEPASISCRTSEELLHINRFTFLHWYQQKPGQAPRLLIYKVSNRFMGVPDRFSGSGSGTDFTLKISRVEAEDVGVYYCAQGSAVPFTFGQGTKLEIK
Result :: 5.62

Query :: Kindly indicate its recorded pKd. Item: dBBDu_186 / dBBDu_L098 (antibody, human IgG1, V domains shown, Tested as IgG (human IgG1 constant region, kappa light chain); also called dBBDu186/L098) VH: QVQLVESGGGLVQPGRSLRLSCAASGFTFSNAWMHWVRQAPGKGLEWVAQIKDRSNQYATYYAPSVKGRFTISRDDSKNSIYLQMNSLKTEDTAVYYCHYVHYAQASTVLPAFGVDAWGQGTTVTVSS VL: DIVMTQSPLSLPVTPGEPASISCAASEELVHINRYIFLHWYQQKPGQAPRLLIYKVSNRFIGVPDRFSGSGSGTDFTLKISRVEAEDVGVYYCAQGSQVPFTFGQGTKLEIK
Result :: 5.64
